The measured values listed here are drawn from BindingDB's records for doi:10.1016/s0248-4900(98)80009-9.

# subject_of_test: Melatonin receptor type 1B (Homo sapiens, UniProt P49286)
# Sequence (P49286 whole entry): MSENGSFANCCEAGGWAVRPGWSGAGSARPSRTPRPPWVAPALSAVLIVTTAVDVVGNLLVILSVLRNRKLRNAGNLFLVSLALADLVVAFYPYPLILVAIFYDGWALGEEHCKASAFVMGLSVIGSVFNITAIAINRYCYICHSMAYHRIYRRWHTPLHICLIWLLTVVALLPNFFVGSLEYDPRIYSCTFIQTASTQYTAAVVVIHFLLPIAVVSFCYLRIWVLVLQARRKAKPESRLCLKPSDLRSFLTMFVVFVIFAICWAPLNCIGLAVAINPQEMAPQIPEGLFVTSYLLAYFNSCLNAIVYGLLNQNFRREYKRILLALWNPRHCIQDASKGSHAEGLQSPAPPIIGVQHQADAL
readout_kind: Ki (nM)

molecule	reading
CC(=O)NCCc1c[nH]c2ccccc12	90

(A) COc1ccc2[nH]c(-c3ccccc3)c(CCNC(C)=O)c2c1
(B) CC(=O)NCCc1c[nH]c2ccc(O)cc12 [N-Acetyltryptamine,5-Hydroxy]
(C) COc1ccc2[nH]c(Cl)c(CCNC(C)=O)c2c1
(D) CC(=O)NCCc1c[nH]c2ccc(C)cc12
Query: // ascending sort on recorded Ki Write the labels out in the order the request specifies.
Response: A, C, D, B
(A: 0.15 nM, C: 0.22 nM, D: 41 nM, B: 210 nM)
